Recorded AUC(0-t) by entry
ASSAY_SUMMARY: Pharmacokinetic study in rats after oral administration of cinobufacini capsule (UPLC-MS/MS of plasma)
Type: in vivo, rat
EXPERIMENTAL_CONTEXT: male, Sprague-Dawley, in vivo; rat plasma, oral cinobufacini capsule 3.6 g/kg (high), mean ± SD, n = 6
Text: Male Sprague–Dawley rats (weighing 200–220 g) of SPF grade were offered by Sippr/BK laboratory Animal, Corp., Ltd. (Shanghai, China) and fed in the Laboratory Animal Center of the Shanghai University of Traditional Chinese Medicine. […] An Agilent 1290 Infinity series UPLC system was combined with an Agilent 6460 series triple quadrupole mass spectrometer (Agilent Technologies, Santa Clara, CA, United States) to quantify all 13 analytes in an ESI-positive ionization mode. […]
MEASUREMENT_KIND: AUC(0-t) (ng·h/mL)

| COMPOUND | MEASUREMENT_KIND | RESULT_VALUE |
| --- | --- | --- |
| C[C@]12CC[C@H](O)C[C@H]1CC[C@@H]1[C@@H]2CC[C@]2(C)[C@@H](c3ccc(=O)oc3)[C@@H](O)[C@H]3O[C@]132 [DCG, desacetylcinobufagin] | AUC(0-t) | 148 |
| C[C@]12CC[C@H](O)C[C@H]1CC[C@@H]1[C@@H]2[C@H](O)C[C@]2(C)[C@@H](c3ccc(=O)oc3)CC[C@]12O [GBL, gamabufotalin] | AUC(0-t) | 54 |
| C[C@]12CC[C@H](O)C[C@H]1CC[C@@H]1[C@@H]2[C@H](O)C(=O)[C@]2(C)[C@@H](c3ccc(=O)oc3)CC[C@]12O [ABG, arenobufagin] | AUC(0-t) | 87.3 |

* * *

ASSAY_SUMMARY: Pharmacokinetic study in rats after oral administration of cinobufacini capsule (UPLC-MS/MS of plasma)
Format: in vivo, rat
EXPERIMENTAL_CONTEXT: male, Sprague-Dawley, in vivo; rat plasma, oral cinobufacini capsule 0.9 g/kg (low), mean ± SD, n = 6; read-out: T1/2z (converted)
Description: Male Sprague–Dawley rats (weighing 200–220 g) of SPF grade were offered by Sippr/BK laboratory Animal, Corp., Ltd. (Shanghai, China) and fed in the Laboratory Animal Center of the Shanghai University of Traditional Chinese Medicine. […] An Agilent 1290 Infinity series UPLC system was combined with an Agilent 6460 series triple quadrupole mass spectrometer (Agilent Technologies, Santa Clara, CA, United States) to quantify all 13 analytes in an ESI-positive ionization mode. […]
Threshold 50 min: half-life strictly smaller gives MET, otherwise NOT MET.

| COMPOUND_STRUCTURE_STRING | LABEL |
| --- | --- |
| C[C@]12CC[C@H](O)C[C@H]1CC[C@@H]1[C@@H]2CC[C@]2(C)[C@@H](c3ccc(=O)oc3)[C@@H](O)[C@H]3O[C@]132 | NOT MET |
| C[C@]12CC[C@H](O)C[C@H]1CC[C@@H]1[C@@H]2[C@H](O)C[C@]2(C)[C@@H](c3ccc(=O)oc3)CC[C@]12O | MET |
| C[C@]12CC[C@H](O)C[C@@]1(O)CC[C@@H]1[C@@H]2CC[C@]2(C)[C@@H](c3ccc(=O)oc3)CC[C@]12O | MET |
| C[C@]12CC[C@H](O)C[C@H]1CC[C@@H]1[C@@H]2CC[C@]2(C)[C@@H](c3ccc(=O)oc3)CC[C@]12O | NOT MET |

* * *

ASSAY_SUMMARY: Pharmacokinetic study in rats after oral administration of cinobufacini capsule (UPLC-MS/MS of plasma)
Format: in vivo, rat
EXPERIMENTAL_CONTEXT: male, Sprague-Dawley, in vivo; rat plasma, oral cinobufacini capsule 1.8 g/kg (medium), mean ± SD, n = 6; read-out: MRT0-t
Entries and their measured MRT last follow.

| COMPOUND | MRT last (h) |
| --- | --- |
| C[C@]12CC[C@H](O)C[C@H]1CC[C@@H]1[C@@H]2CC[C@]2(C)[C@@H](c3ccc(=O)oc3)CC[C@]12O [BF, bufalin] | 1.45 |
| C[C@]12CC[C@H](O)C[C@H]1CC[C@@H]1[C@@H]2[C@H](O)C[C@]2(C)[C@@H](c3ccc(=O)oc3)CC[C@]12O [GBL, gamabufotalin] | 0.73 |
| C[C@]12CC[C@H](O)C[C@H]1CC[C@@H]1[C@@H]2C(=O)[C@@H](O)[C@]2(C)[C@@H](c3ccc(=O)oc3)CC[C@]12O [PBG, pseudobufarenogin] | 1.49 |

* * *

ASSAY_SUMMARY: Pharmacokinetic study in rats after oral administration of cinobufacini capsule (UPLC-MS/MS of plasma)
Format: in vivo, rat
EXPERIMENTAL_CONTEXT: male, Sprague-Dawley, in vivo; rat plasma, oral cinobufacini capsule 1.8 g/kg (medium), mean ± SD, n = 6
Source text: Male Sprague–Dawley rats (weighing 200–220 g) of SPF grade were offered by Sippr/BK laboratory Animal, Corp., Ltd. (Shanghai, China) and fed in the Laboratory Animal Center of the Shanghai University of Traditional Chinese Medicine. […] An Agilent 1290 Infinity series UPLC system was combined with an Agilent 6460 series triple quadrupole mass spectrometer (Agilent Technologies, Santa Clara, CA, United States) to quantify all 13 analytes in an ESI-positive ionization mode. […]

| COMPOUND | AUC(0-t) (ng·h/mL) |
| --- | --- |
| C[C@]12CC[C@H](O)C[C@H]1CC[C@@H]1[C@@H]2[C@H](O)C(=O)[C@]2(C)[C@@H](c3ccc(=O)oc3)CC[C@]12O [ABG, arenobufagin] | 44.1 |
| C[C@]12CC[C@H]3[C@@H](CC[C@]4(O)C[C@@H](O)CC[C@]34C=O)[C@@]1(O)CC[C@@H]2c1ccc(=O)oc1 [HBG, hellebrigenin] | 13.7 |
| C[C@]12CC[C@H](O)C[C@H]1CC[C@@H]1[C@@H]2CC[C@]2(C)[C@@H](c3ccc(=O)oc3)[C@@H](O)[C@H]3O[C@]132 [DCG, desacetylcinobufagin] | 100 |

* * *

ASSAY_SUMMARY: Stability of analytes in rat plasma QC samples under storage conditions
Assay type: physicochemical
EXPERIMENTAL_CONTEXT: post-treatment storage in autosampler; low QC level (4.99–5.00 ng/ml), n = 6

| COMPOUND_STRUCTURE_STRING | READOUT_UNIT | Stability during 24 h at 4°C, RE |
| --- | --- | --- |
| C[C@]12CC[C@H](O)C[C@H]1CC[C@@H]1[C@@H]2CC[C@]2(C)[C@@H](c3ccc(=O)oc3)[C@@H](O)[C@H]3O[C@]132 | % | 1.5 |
| CC(=O)O[C@H]1[C@H]2O[C@]23[C@@H]2CC[C@@H]4C[C@@H](O)CC[C@]4(C)[C@H]2CC[C@]3(C)[C@H]1c1ccc(=O)oc1 | % | 4.8 |
| C[C@]12CC[C@H](O)C[C@H]1CC[C@@H]1[C@@H]2C(=O)[C@@H](O)[C@]2(C)[C@@H](c3ccc(=O)oc3)CC[C@]12O | % | 6.6 |
| C[C@]12CC[C@H](O)C[C@H]1CC[C@@H]1[C@@H]2[C@H](O)C[C@]2(C)[C@@H](c3ccc(=O)oc3)CC[C@]12O | % | 12.0 |
| C[C@]12CC[C@H](O)C[C@H]1CC[C@@H]1[C@@H]2CC[C@]2(C)[C@@H](c3ccc(=O)oc3)C[C@H]3O[C@]132 | % | −6.4 |
| C[C@]12CC[C@H](O)C[C@H]1CC[C@@H]1[C@@H]2[C@H](O)C(=O)[C@]2(C)[C@@H](c3ccc(=O)oc3)CC[C@]12O | % | 7.4 |

* * *

ASSAY_SUMMARY: Pharmacokinetic study in rats after oral administration of cinobufacini capsule (UPLC-MS/MS of plasma)
Type: in vivo, rat
EXPERIMENTAL_CONTEXT: male, Sprague-Dawley, in vivo; rat plasma, oral cinobufacini capsule 0.9 g/kg (low), mean ± SD, n = 6; read-out: T1/2z (converted)
Description: Male Sprague–Dawley rats (weighing 200–220 g) of SPF grade were offered by Sippr/BK laboratory Animal, Corp., Ltd. (Shanghai, China) and fed in the Laboratory Animal Center of the Shanghai University of Traditional Chinese Medicine. […] An Agilent 1290 Infinity series UPLC system was combined with an Agilent 6460 series triple quadrupole mass spectrometer (Agilent Technologies, Santa Clara, CA, United States) to quantify all 13 analytes in an ESI-positive ionization mode. […]
Recorded half-life, one value per entry.
MEASUREMENT_KIND: half-life (h)

| COMPOUND_STRUCTURE_STRING | READOUT_UNIT | RESULT_VALUE |
| --- | --- | --- |
| C[C@]12CC[C@H](O)C[C@@]1(O)CC[C@@H]1[C@@H]2CC[C@]2(C)[C@@H](c3ccc(=O)oc3)[C@@H](O)[C@H]3O[C@]132 | h | 0.83 |
| C[C@]12CC[C@H]3[C@@H](CC[C@]4(O)C[C@@H](O)CC[C@]34C=O)[C@@]1(O)CC[C@@H]2c1ccc(=O)oc1 | h | 1.02 |
| C[C@]12CC[C@H](O)C[C@H]1CC[C@@H]1[C@@H]2C(=O)[C@@H](O)[C@]2(C)[C@@H](c3ccc(=O)oc3)CC[C@]12O | h | 1.52 |
